Target: human GLP-1 receptor (human, UniProt P43220 24-463)
Assay: cell-based or functional assay
*1 amine or outer side, *2 acyl side, *3 side chain or, on linkers, in order; H or OH if unused. Where no end group is shown, it is not given here. Side-chain parts run from the residue outwards. [ ]: non-standard residue; d: D form. The star is where a group is joined. αMePhe(2-F) = C[C@](N)(Cc1ccccc1F)C(=O)O; γGlu = O=C(O)[C@H](CCC(=O)[*:2])N[*:1]; C14 diacid = O=C(O)CCCCCCCCCCCCC(=O)*; αMeY = C[C@](N)(Cc1ccc(O)cc1)C(=O)O; αMeF = C[C@](N)(Cc1ccccc1)C(=O)O; αMeL = CC(C)C[C@](C)(N)C(=O)O; Orn = NCCC[C@H](N)C(=O)O; AEEA = NCCOCCOCC(=O)O; Aib = CC(C)(N)C(=O)O
measurementName: EC50, cAMP (nM)
# value in nM; strip the unit string

Completed entries (count: 10):
1. Y[Aib]EGT[αMePhe(2-F)]TSDV[Aib]I[αMeL]LD[Orn]K([AEEA-AEEA-γGlu-C14 diacid])AQ[Aib]E[αMeF]IK([AEEA-AEEA-γGlu-C14 diacid])[αMeF]LIEGGPSSGAPPPS-NH2 [Example 123]	0.508
2. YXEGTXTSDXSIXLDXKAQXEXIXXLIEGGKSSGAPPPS (Aib2, αMeF(2F)6, 4Pal10, αMeL13, Orn16, Aib20, αMeF(2F)22, D-Glu24, αMeY25, K17 and K31: K(AEEA2-(γ-Glu)-CO-(CH2)12-CO2H), C-terminal NH2) [Example 88]	6.08
3. YXEGTXTSDXSIXLDXKAQXEFIKXLIEGGPSSGAPPPS (Aib2, αMeF(2F)6, Ac5c10, αMeL13, Orn16, Aib20, αMeY25, K17 and K24: K(AEEA2-(γ-Glu)-CO-(CH2)12-CO2H), C-terminal NH2) [Example 116]	0.197
4. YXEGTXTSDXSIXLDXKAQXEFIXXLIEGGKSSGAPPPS (Aib2, αMeF(2F)6, Bip10, αMeL13, Orn16, Aib20, D-Glu24, αMeY25, K17 and K31: K(AEEA2-(γ-Glu)-CO-(CH2)12-CO2H), C-terminal NH2) [Example 55]	0.154
5. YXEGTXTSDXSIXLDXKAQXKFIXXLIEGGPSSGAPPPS (Aib2, αMeF(2F)6, 4Pal10, αMeL13, Orn16, Aib20, D-Glu24, αMeY25, K17 and K21: K(AEEA-(γ-Glu)-CO-(CH2)12-CO2H), C-terminal NH2) [Example 76]	0.527
6. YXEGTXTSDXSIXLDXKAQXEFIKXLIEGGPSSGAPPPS (Aib2, αMeF(2F)6, 4Pal10, αMeL13, Orn16, Aib20, αMeY25, K17 and K24: K(AEEA2-(γ-Glu)-CO-(CH2)14-CH3), C-terminal NH2) [Example 22]	0.0153
7. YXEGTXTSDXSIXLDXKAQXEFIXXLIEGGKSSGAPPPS (Aib2, αMeF(2F)6, 4CPhe10, αMeL13, Orn16, Aib20, D-Glu24, αMeY25, K17 and K31: K(AEEA2-(γ-Glu)-CO-(CH2)12-CO2H), C-terminal NH2) [Example 96]	6.81
8. YXEGTXTSDXSIXLDXIAQXKFIXXLIEGGPSSGAPPPSK (Aib2, αMeF(2F)6, 4Pal10, αMeL13, Orn16, Aib20, D-Glu24, αMeY25, K21 and K40: K(AEEA2-(γ-Glu)-CO-(CH2)12-CO2H), C-terminal NH2) [Example 75]	0.411
9. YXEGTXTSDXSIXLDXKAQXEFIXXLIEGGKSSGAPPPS (Aib2, αMeF(2F)6, 4Pal10, αMeL13, Orn16, Aib20, D-Glu24, αMeY25, K17 and K31: K(AEEA2-(γ-Glu)-CO-(CH2)14-CH3), C-terminal NH2) [Example 7]	0.00676
10. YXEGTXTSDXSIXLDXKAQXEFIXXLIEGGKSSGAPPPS (Aib2, αMeF(2F)6, αMeF(2F)10, αMeL13, Orn16, Aib20, D-Glu24, αMeY25, K17 and K31: K(AEEA2-(γ-Glu)-CO-(CH2)12-CO2H), C-terminal NH2) [Example 87]	1.34

[Q] Name the reported EC50, cAMP value associated with the binder Y[Aib]EGT[αMePhe(2-F)]TSDV[Aib]I[αMeL]LD[Orn]K([AEEA-AEEA-γGlu-C14 diacid])AQ[Aib]E[αMeF]IK([AEEA-AEEA-γGlu-C14 diacid])[αMeY]LIEGGPSSGAPPPS-NH2 [Example 119]
[A] 0.351

Numbers sourced from patent US20230265151A1.
